System: endogenous TFE3
EXPERIMENT DESCRIPTION: TFE3 nuclear translocation, immunocytochemistry high-content imaging
Format: cell-based
CONDITION INFO: PKIS2 primary screening
Binary classification by TFE3 %, with 10% as an inclusive lower bound for rule met; all other cases are rule not met.

Study these solved cases before continuing.
>  <MOLECULE>
CC(C)N1CCC(n2cnc(-c3ccc(F)cc3)c2-c2ccnc(N)n2)CC1 [UNC10225258A]

>  <CLASS NAME>
rule met

$$$$
>  <MOLECULE>
Cc1ccc(Nc2ccnc(Nc3ccc(C)c(F)c3)n2)cc1O [GW582868]

>  <CLASS NAME>
rule met

$$$$
>  <MOLECULE>
Nc1nc(-c2nccs2)c(-c2ccnc3ccccc23)s1 [UNC10225429A]

>  <CLASS NAME>
rule met

$$$$
>  <MOLECULE>
CCn1c(-c2nonc2N)nc2c(C#CC(C)(C)O)nc(OCCN)cc21.Cl.Cl [UNC10225460A]

>  <CLASS NAME>
rule met

$$$$
>  <MOLECULE>
COc1ccc(Nc2ncc(C#N)c(Nc3ccccc3C(N)=O)n2)cc1N1CCN(C)CC1 [GSK1558669]

>  <CLASS NAME>
rule met

$$$$
>  <MOLECULE>
CN(C)S(=O)(=O)c1cc(-c2ccc3nccc(-c4cccc(S(N)(=O)=O)c4)c3c2)cnc1N [UNC10225457A]

>  <CLASS NAME>
rule not met

$$$$
>  <MOLECULE>
O=c1cc(N2CCOCC2)nc2n(Cc3cccc(C(F)(F)F)c3)ccn12 [UNC10225024A]

>  <CLASS NAME>
rule met

$$$$
>  <MOLECULE>
Clc1ccc(-c2cc(-c3c[nH]nc3-c3ccccn3)ccn2)cc1 [UNC10225057A]

>  <CLASS NAME>
rule not met

$$$$
>  <MOLECULE>
COc1cc2nccc(Nc3cccc(Oc4ccccc4)c3)c2cc1OC.Cl [UNC10225170A]

>  <CLASS NAME>
rule met

$$$$
>  <MOLECULE>
CCn1c(-c2nonc2N)nc2c(-c3ccccc3)ncc(OCCCN)c21.O=C(O)C(F)(F)F.O=C(O)C(F)(F)F [UNC10225047A]

>  <CLASS NAME>
rule met

$$$$

Lookup: hey, is TFE3 % for this one >= 10%? C=CC(=O)Nc1cc2c(Nc3ccc(F)c(Cl)c3)ncnc2cc1OCCCN1CCOCC1 [UNC10126563B]
Found: rule met

Lookup: hey, is TFE3 % for this one >= 10%? O=C(Nc1ccc2c(c1)OCO2)NC1CCN(c2ccnc(NCc3ccc(F)cc3)n2)CC1 [GSK1379859]
Found: rule met

Lookup: hey, is TFE3 % for this one >= 10%? Cc1ccc(C(=O)Nc2ccc(Nc3ccnc4cc(-c5nccs5)ccc34)cc2O)cc1.Cl [UNC10225432A]
Found: rule met

* * *

Test system: SH-SY5Y cells
EXPERIMENT DESCRIPTION: AK (adenylate kinase) release ToxiLight cytotoxicity assay; note: reference of the scale not given here
CONDITION INFO: PKIS2 primary screening
MEASUREMENT NAME: AK
Please state the value as a number alone, without comment.

Example entries and their recorded answers appear below.
>  <COMPOUND>
NS(=O)(=O)c1cccc(-c2ccc3nccc(-c4cccc(S(N)(=O)=O)c4)c3c2)c1 [UNC10225379A]

>  <AK>
131.37

$$$$
>  <COMPOUND>
COc1cccc(NC(=O)NC2CCN(c3ccnc(Nc4ccc(F)cc4)n3)C2)c1 (stereo not shown)

>  <AK>
103.41

$$$$
>  <COMPOUND>
Cc1ccc(Nc2ccnc(Nc3ccc4c(c3)CS(=O)(=O)C4)n2)cc1O

>  <AK>
117.18

$$$$
>  <COMPOUND>
CC(=O)N1CCN(c2ccc(Nc3nccc(-c4sc(C(C)C)nc4-c4cccc(NS(=O)(=O)c5cccc(Cl)c5)c4)n3)cn2)CC1 [UNC10225481A]

>  <AK>
73.54

$$$$
>  <COMPOUND>
Nc1ncc(-c2ccc3nccc(-c4ccncc4)c3c2)cc1S(=O)(=O)N1CCCCC1 [UNC10225117A]

>  <AK>
150.20

$$$$

Lookup: Look up AK with SH-SY5Y cells for this compound: Cc1ccc(O)cc1Nc1ccnc2ccc(C(C)(C)C)cc12 [UNC10225479A]
Found: 75.82

Lookup: Look up AK with SH-SY5Y cells for this compound: Cc1cccc(Nc2nc(N[C@H]3CCCC[C@H]3N)ncc2C(N)=O)c1.Cl [UNC10225280A]
Found: 87.17

Lookup: Look up AK with SH-SY5Y cells for this compound: C[C@@H]1CC[C@H](C(=O)NC2CCCCC2)CN1c1cc(-c2ccc3c(N)n[nH]c3c2)nc(N)n1
Found: 87.12

Lookup: Look up AK with SH-SY5Y cells for this compound: Fc1cc(Cl)ccc1Nc1ccnc2cc(-c3ccc(CN4CCOCC4)o3)ccc12 [UNC10225106A]
Found: 77.69

Lookup: Look up AK with SH-SY5Y cells for this compound: CNc1nc(-c2ccc3c(N)n[nH]c3c2)cc(N2C[C@@H](C(=O)Nc3ccccc3)CC[C@H]2C)n1
Found: 105.92

Lookup: Look up AK with SH-SY5Y cells for this compound: O=C(NCCNc1ccnc(NCc2ccc(F)cc2)n1)c1cc2ccccc2s1
Found: 378.86

Lookup: Look up AK with SH-SY5Y cells for this compound: Cc1ccn2nc(-c3ccc(F)cc3)c(-c3ccncc3)c2c1.Cl [UNC10224989A]
Found: 121.47

Lookup: Look up AK with SH-SY5Y cells for this compound: Fc1ccc(-c2ncn(CCCN3CCOCC3)c2-c2ccccn2)cc1 [UNC10225382A]
Found: 83.54

Lookup: Look up AK with SH-SY5Y cells for this compound: CN(c1ccc2c(c1)nc(NCc1ccc(F)cc1)n2C)c1ccnc(Nc2ccc(CS(C)(=O)=O)cc2)n1
Found: 87.46

Lookup: Look up AK with SH-SY5Y cells for this compound: O=C(Nc1cccc(-c2nn3ccccc3c2-c2ccnc(Nc3cccc(C(F)(F)F)c3)n2)c1)c1c(F)cccc1F [UNC10225325A]
Found: 71.36

Lookup: Look up AK with SH-SY5Y cells for this compound: Cl.O=C(Nc1cccc(-c2nn3ncccc3c2-c2ccnc(Nc3cccnc3)n2)c1)c1c(F)cccc1F [UNC10225440A]
Found: 101.41

Lookup: Look up AK with SH-SY5Y cells for this compound: NC(=O)c1cccc(Nc2nccc(Nc3ccc(Oc4cccc(Cl)c4)c(Cl)c3)n2)c1
Found: 92.69

* * *

System: SH-SY5Y cells
EXPERIMENT DESCRIPTION: Nuclear count from microscopy images (cellular growth and toxicity); note: reference of the scale not given here
CONDITION INFO: PKIS2 primary screening
Binary classification by Nuclear Count, with 100 as an inclusive lower bound for satisfied; all other cases are not satisfied.

Study these solved cases before continuing.
>  <COMPOUND>
Oc1cc(Nc2ccnc3cc(I)ccc23)ccc1F [UNC10225441A]

>  <CLASS NAME>
satisfied

$$$$
>  <COMPOUND>
CN(c1ccc2c(c1)nc(NCc1ccc(F)cc1)n2C)c1ccnc(Nc2ccc(CS(C)(=O)=O)cc2)n1

>  <CLASS NAME>
satisfied

$$$$
>  <COMPOUND>
CN1CCC(n2cnc(-c3ccc(F)cc3)c2-c2ccnc(NC3CCNCC3)n2)CC1 [UNC10225443A]

>  <CLASS NAME>
satisfied

$$$$
>  <COMPOUND>
NCCNS(=O)(=O)c1ccc(-c2ccnc3[nH]ccc23)cc1 [UNC10225023B]

>  <CLASS NAME>
satisfied

$$$$
>  <COMPOUND>
c1ccc(Oc2ccc(Nc3ccnc4ccc(-c5ccccn5)cc34)cc2)cc1 [UNC10225215A]

>  <CLASS NAME>
satisfied

$$$$
>  <COMPOUND>
COc1cc(Nc2nccc(-c3c(-c4cccc(NC(=O)c5c(F)cccc5F)c4)nn4ncccc34)n2)cc(OC)c1OC [UNC10225433A]

>  <CLASS NAME>
not satisfied

$$$$
>  <COMPOUND>
Cc1ccc(O)cc1Nc1ccnc2ccc(C(C)(C)C)cc12 [UNC10225479A]

>  <CLASS NAME>
not satisfied

$$$$
>  <COMPOUND>
CC[C@@H]1CO[C@H](C(=O)Nc2ccccc2)CN1c1cc(-c2ccc3c(N)n[nH]c3c2)nc(NC)n1

>  <CLASS NAME>
satisfied

$$$$
>  <COMPOUND>
O=C(NCCNc1ccnc(NCc2ccc(F)cc2)n1)c1cc2ccccc2s1

>  <CLASS NAME>
not satisfied

$$$$
>  <COMPOUND>
COC(=O)C(Cc1ccccc1)NC(=O)NC1CCN(c2ccnc(Nc3ccc(F)cc3)n2)C1 (stereo not shown)

>  <CLASS NAME>
satisfied

$$$$

Lookup: hey, is Nuclear Count for this one >= 100? CNc1nc(-c2ccc3c(N)n[nH]c3c2)cc(N2C[C@@H](C(=O)NC3CCCCC3)OC[C@H]2C)n1
Found: satisfied

Lookup: hey, is Nuclear Count for this one >= 100? COc1cc2nccc(Nc3ccc(Oc4ccccc4)cc3)c2cc1OC.Cl [UNC10225483A]
Found: not satisfied

Lookup: hey, is Nuclear Count for this one >= 100? Nc1ncnc2occ(-c3ccc4c(c3)CCN4C(=O)Cc3cc(F)ccc3F)c12 [UNC10225000A]
Found: satisfied

Lookup: hey, is Nuclear Count for this one >= 100? CSc1ccc(-c2nc3n(c2-c2ccncc2)CCC3)cc1 [UNC10225486A]
Found: not satisfied

Hello, the source for this data is paper PMC9851200, in case you need it.
